Tested Target: Ec Hfq Q33W (Escherichia coli, UniProt P0A6X3 1-102, Q33W)
Method Summary: fluorescence polarization
pKd: −log10 of the molar value.
Observed Property: pKd

| Binder | Observed Property | Observed Measurement |
| --- | --- | --- |
| UUUUUU (ssRNA) [U6 (fluorescein)] | pKd | 6.39 |
